Quick reference: Relative Inhibition of IL-13 induced pSTAT6 IC50 of the listed items.
target.desc: T1, hIL-4Rα on cells (human, UniProt P24394 26-825)
T1 sequence: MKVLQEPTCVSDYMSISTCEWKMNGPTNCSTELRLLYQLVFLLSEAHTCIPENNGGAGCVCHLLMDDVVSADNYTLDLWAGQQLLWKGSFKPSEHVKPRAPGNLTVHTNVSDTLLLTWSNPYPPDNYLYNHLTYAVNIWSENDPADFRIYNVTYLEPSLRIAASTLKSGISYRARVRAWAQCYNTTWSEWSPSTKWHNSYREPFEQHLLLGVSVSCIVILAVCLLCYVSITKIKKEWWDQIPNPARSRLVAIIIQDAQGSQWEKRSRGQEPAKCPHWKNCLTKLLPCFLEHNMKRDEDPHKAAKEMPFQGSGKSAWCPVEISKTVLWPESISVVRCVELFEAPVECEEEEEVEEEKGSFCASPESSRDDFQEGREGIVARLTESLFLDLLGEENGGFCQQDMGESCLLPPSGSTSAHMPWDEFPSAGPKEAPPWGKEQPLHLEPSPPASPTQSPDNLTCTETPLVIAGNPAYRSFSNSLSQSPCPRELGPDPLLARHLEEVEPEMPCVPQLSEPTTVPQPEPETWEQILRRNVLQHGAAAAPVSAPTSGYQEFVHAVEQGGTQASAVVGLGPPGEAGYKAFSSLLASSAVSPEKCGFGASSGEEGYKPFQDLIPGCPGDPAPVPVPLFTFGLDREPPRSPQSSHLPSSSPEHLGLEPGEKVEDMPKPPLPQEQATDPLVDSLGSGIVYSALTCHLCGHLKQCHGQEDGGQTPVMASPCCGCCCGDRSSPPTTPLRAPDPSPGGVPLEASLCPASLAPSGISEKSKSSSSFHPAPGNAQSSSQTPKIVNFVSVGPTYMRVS
protocol.description: cell-based or functional assay

# count of solved cases: 4
- binder: "Construct 2 (mAb411) (antibody, IgG4, V domains shown, VH/VL only) VH: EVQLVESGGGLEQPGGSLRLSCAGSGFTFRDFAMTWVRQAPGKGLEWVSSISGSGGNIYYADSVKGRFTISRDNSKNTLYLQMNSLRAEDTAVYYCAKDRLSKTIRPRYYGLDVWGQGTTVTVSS VL: DIVMTQSPLSLPVTPGEPASISCTASQSLLYSIGYNYVDWYLQKSGQSPQLLIYLGSKRASGVPDRFSGSGSGTDFTLKISRVEAEDVGFYYCMQALTTPYTFGQGTKLEIK"
  measurement: "0.685 relative to dupilumab"
- binder: "Construct 35 (mAb467) (antibody, IgG4, V domains shown, VH/VL only) VH: EVQLVESGGGLEQPGGSLRLSCAGSGFTFRTYAMTWVRQAPGKGLEWVSSISGSGGNTYYADSVKGRFTISRDNSKNTLYLQMNSLRAEDTAVYYCAKDRVSITIRPRYYGLDVWGQGTTVTVSS VL: DIVMTQSPLSLPVTPGEPASISCTSSQSLLYSIGKNYVDWYLQKSGQSPQLLIYEGNNRATGVPDRFSGSGSGTDFTLKISRVEAEDVGFYYCMQSLTSPYTFGQGTKLEIK"
  measurement: "2.71 relative to dupilumab"
- binder: "Construct 20 (mAb428) (antibody, IgG4, V domains shown, VH/VL only) VH: EVQLVESGGGLEQPGGSLRLSCAGSGFTFRDFAMTWVRQAPGKGLEWVSSISGSGDNTYYADSVKGRFTISRDNSKNTLYLQMNSLRAEDTAVYYCAKDRLSITVRPRYYGLDVWGQGTTVTVSS VL: DIVMTQSPLSLPVTPGEPASISCTSSQSLLYSIGYNYVDWYLQKSGQSPQLLIYLGNKRASGVPDRFSGSGSGTDFTLKISRVEAEDVGFYYCMQSLQTPYVFGQGTKLEIK"
  measurement: "1.86 relative to dupilumab"
- binder: "Construct 22 (mAb430) (antibody, IgG4, V domains shown, VH/VL only) VH: EVQLVESGGGLEQPGGSLRLSCAGSGFTFRDFAMTWVRQAPGKGLEWVSSISGSGSSTYYADSVKGRFTISRDNSKNTLYLQMNSLRAEDTAVYYCAKDRLSVTVRPRYYGLDVWGQGTTVTVSS VL: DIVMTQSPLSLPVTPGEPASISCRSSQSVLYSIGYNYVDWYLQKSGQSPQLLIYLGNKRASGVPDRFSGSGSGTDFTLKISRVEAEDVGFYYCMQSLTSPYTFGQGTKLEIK"
  measurement: "0.612 relative to dupilumab"

Then there is this binder:
stdin: Report measured Relative Inhibition of IL-13 induced pSTAT6 IC50; entry is Construct 18 (mAb426) (antibody, IgG4, V domains shown, VH/VL only) VH: EVQLVESGGGLEQPGGSLRLSCAGSGFTFRDFAMTWVRQAPGKGLEWVSSISGSGDNTYYADSVKGRFTISRDNSKNTLYLQMNSLRAEDTAVYYCAKDRLSKTIRPRYYGLDVWGQGTTVTVSS VL: DIVMTQSPLSLPVTPGEPASISCTSSQSLLYSIGKNYVDWYLQKSGQSPQLLIYLGNKRASGVPDRFSGSGSGTDFTLKISRVEAEDVGFYYCMQSLTSPYTFGQGTKLEIK
stdout: 0.446 relative to dupilumab

Source of measurements: patent US20260193366A1
